# assayed-system: T1, MBP-Ltl1 (Tetrahymena thermophila, UniProt I7MGR7 1-417)
# T1 sequence: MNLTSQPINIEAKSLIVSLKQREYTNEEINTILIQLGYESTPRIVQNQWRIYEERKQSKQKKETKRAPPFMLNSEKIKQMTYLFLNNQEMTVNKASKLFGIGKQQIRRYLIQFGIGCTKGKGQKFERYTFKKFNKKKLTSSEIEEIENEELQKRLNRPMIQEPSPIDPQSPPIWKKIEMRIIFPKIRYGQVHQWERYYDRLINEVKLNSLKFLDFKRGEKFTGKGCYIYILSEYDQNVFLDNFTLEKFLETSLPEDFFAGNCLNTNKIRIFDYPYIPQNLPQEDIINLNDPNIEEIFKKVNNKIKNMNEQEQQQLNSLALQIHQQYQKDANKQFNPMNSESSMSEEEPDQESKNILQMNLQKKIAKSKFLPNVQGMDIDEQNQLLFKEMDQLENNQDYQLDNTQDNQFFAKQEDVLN
# test-details: EMSA; majority of probe in G-quadruplex form; EMSA as in Carle et al. (ref 20), binding buffer and temperature not given; probes annealed in 10 mM Tris pH 7.5, 5% glycerol, 100 mM KCl; protein dialyzed in 50 mM Tris pH 7.5, 100 mM KCl, 10% glycerol, 1 mM MnSO4, 1 mM MgCl2, 1 mM ZnSO4
# measurement-setup: protein: recombinant; MBP (pMAL fusion); label: 5' 32P
recorded-metric: Kd

# input Indicate its recorded Kd; the binder in question is TTTATTAATCAAAAAGGGGGTAAATAATAA (structured_DNA) [M IES left flank G4 (M1_A5G5_FW)]
# output ~350 nM
